- Target System: PADI4 (Homo sapiens, UniProt Q9UM07)
- Construct: His6; made in house
- Sequence (Q9UM07 whole entry): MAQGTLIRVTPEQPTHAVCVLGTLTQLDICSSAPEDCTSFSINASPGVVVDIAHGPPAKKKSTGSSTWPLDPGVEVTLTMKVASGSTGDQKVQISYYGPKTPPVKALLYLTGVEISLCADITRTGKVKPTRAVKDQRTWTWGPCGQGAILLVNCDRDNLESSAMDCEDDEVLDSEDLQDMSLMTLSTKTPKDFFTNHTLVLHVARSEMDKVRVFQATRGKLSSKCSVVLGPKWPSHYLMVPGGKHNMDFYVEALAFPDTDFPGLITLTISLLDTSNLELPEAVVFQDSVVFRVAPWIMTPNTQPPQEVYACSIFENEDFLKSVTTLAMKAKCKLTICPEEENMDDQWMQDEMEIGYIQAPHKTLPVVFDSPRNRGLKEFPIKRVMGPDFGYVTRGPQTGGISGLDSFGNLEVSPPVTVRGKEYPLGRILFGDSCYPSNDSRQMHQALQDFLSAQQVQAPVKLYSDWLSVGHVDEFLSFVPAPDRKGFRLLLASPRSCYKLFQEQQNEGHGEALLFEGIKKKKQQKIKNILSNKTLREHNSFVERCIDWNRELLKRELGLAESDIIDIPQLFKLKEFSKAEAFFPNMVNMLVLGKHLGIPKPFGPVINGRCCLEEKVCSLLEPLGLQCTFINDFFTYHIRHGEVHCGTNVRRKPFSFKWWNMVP
- Procedure Details: Surface plasmon resonance (SPR), single cycle kinetics
- Format: binding
- Method: S8. Surface plasmon resonance (SPR) Using a Biacore S200 (GE Healthcare), biotinylated His-PADI4 (80 nM) was immobilised on a CAP chip (GE Healthcare) to a response unit of approx. 3000. […] mM HEPES, 150 mM NaCl, 10 mM CaCl2, 0.05% Tween-20, 0.1% DMSO (pH 7.5). […] Data were analysed with the Biacore S200 Evaluation Software, each in triplicate. Warhead-containing peptides were analysed using the two-state reaction model, with the rate constant for the reverse second step (k-2) set to zero. […]
Where a SMILES comes first, the peptide text is derived from it. Bridges are numbered along the chain shown (N, C = ends). [ ]: non-standard residue; d: D form. Orn(fluoroacetimidoyl) = N=C(CF)NCCC[C@H](N)C(=O)O
Observation Type: kinact/KI (M⁻¹ s⁻¹)
Express your answer in M⁻¹ s⁻¹, writing the number without its unit.

Solved cases (2 shown):
1) N=C(N)NCCC[C@@H]1NC(=O)[C@H](CCCNC(=N)CF)NC(=O)[C@H](CC(=O)O)NC(=O)[C@H](Cc2ccc(O)cc2)NC(=O)[C@H](CCCCN)NC(=O)[C@H](CO)NC(=O)[C@@H](Cc2ccc(O)cc2)NC(=O)CSC[C@@H](C(=O)NCC(N)=O)NC(=O)[C@H](CC(=O)O)NC(=O)[C@H](CCCNC(=N)N)NC(=O)[C@@H]2CCCN2C(=O)[C@H](CO)NC1=O [cP4_4, ySKYD(2)RSPRDCG] ({CH2CO}-[dY]SKYD[Orn(fluoroacetimidoyl)]RSPRDCG-NH2; thioether N-12) : 15200
2) CC(C)[C@@H]1NC(=O)[C@@H](Cc2ccc(O)cc2)NC(=O)CSC[C@@H](C(=O)NCC(N)=O)NC(=O)[C@H](Cc2ccc(O)cc2)NC(=O)[C@H](CCCCN)NC(=O)[C@H](Cc2c[nH]c3ccccc23)NC(=O)[C@H](CCC(=O)O)NC(=O)[C@H](CCCCN)NC(=O)[C@H](CCCNC(=N)CF)NC(=O)[C@H](CO)NC(=O)[C@H](Cc2ccc(O)cc2)NC1=O [cP4_7, yVYS(2)KEWKYCG] ({CH2CO}-[dY]VYS[Orn(fluoroacetimidoyl)]KEWKYCG-NH2; thioether N-11) : 5720

As a next step, examine the molecule that follows.
Lab note: need kinact/KI with PADI4 (Homo sapiens, UniProt Q9UM07) for entry N=C(N)NCCC[C@@H]1NC(=O)[C@H](CCCCN)NC(=O)[C@H](CC(N)=O)NC(=O)[C@H](Cc2ccccc2)NC(=O)[C@H](CC(=O)O)NC(=O)[C@H](Cc2c[nH]c3ccccc23)NC(=O)[C@H](CC(N)=O)NC(=O)[C@H](CCCNC(=N)CF)NC(=O)[C@H](Cc2ccc(O)cc2)NC(=O)[C@H](Cc2c[nH]c3ccccc23)NC(=O)[C@@H](Cc2ccc(O)cc2)NC(=O)CSC[C@@H](C(=O)NCC(N)=O)NC1=O [cP4_10, yWY(2)NWDFNKRCG] ({CH2CO}-[dY]WY[Orn(fluoroacetimidoyl)]NWDFNKRCG-NH2; thioether N-12) , please look it up.
33400
